- SYSTEM_NAME: T1, CEACAM6 on transfected HeLa cells (human, UniProt P40199 35-320)
- T1 construct: whole, on cells; also called HeLa-CEACAM6; HeLa C6
- T1 sequence (looked up): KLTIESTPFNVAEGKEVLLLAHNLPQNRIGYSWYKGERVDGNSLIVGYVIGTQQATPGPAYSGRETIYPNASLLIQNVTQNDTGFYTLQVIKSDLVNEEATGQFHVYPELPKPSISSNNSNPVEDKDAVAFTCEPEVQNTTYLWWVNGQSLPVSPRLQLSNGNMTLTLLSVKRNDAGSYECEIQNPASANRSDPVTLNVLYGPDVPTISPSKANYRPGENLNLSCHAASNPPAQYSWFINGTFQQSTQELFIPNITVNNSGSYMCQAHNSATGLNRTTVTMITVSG
- ASSAY_INFO: flow cytometry, HeLa-CEACAM6 transfectants, % positive cells
QUANTITY: binding result

1. VH2/Vκ2 (antibody, IgG4, V domains shown, IgG4 (S241P), kappa) VH: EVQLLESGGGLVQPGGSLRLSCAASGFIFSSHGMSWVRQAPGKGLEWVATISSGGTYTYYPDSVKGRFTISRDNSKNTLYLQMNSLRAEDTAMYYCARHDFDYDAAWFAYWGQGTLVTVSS VL: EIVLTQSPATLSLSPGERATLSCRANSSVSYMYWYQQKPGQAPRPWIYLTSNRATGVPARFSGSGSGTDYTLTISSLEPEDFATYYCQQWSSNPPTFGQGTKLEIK : no binding
2. VH1/Vκ8 (antibody, IgG4, V domains shown, IgG4 (S241P), kappa) VH: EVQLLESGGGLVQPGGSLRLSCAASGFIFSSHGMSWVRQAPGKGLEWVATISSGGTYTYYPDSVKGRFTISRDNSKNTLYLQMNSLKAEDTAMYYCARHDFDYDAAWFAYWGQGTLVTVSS VL: EIVLTQSPATLSLSPGERATLSCRANSSVSYMYWYQQKPGQAPRPWIYLTSNRATGVPARFSGSGSGTDYTLTISSLEPEDFAVYYCQQWSSNPPTFGQGTKLEIK : no binding
3. VH4/Vκ2 (antibody, IgG4, V domains shown, IgG4 (S241P), kappa) VH: EVQLLESGGGLVQPGGSLRLSCAASGFIFSSHGMSWVRQAPGKGLEWVSTISSGGTYTYYADSVKGRFTISRDNSKNTLYLQMNSLRAEDTAVYYCARHDFDYDAAWFAYWGQGTLVTVSS VL: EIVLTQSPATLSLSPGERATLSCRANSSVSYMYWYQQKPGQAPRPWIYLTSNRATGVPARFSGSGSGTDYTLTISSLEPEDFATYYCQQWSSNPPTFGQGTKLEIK : no binding
